# Experiment Description: Viability of 293-EBNA cells (dye not stated)
# Details: human
Reported Endpoint: CC50

molecule="CCCCCCCCCCCCNCC(O)CCCCCCCn1c(=O)c2c(ncn2C)n(C)c1=O (centres unmarked)" result="~5 µM"

# context switch: different molecule, same CC50
Task: Need CC50, item CCCCCCCCNCC(O)CCCCCCCCCn1c(=O)c2[nH]cnc2n(C)c1=O (centres unmarked)
Result: ~5 µM

* * *

# Test system: HIV-1 in U1 cells (IL-6 mediated expression)
# Experiment Description: IL-6-mediated HIV-1 p24 antigen expression in chronically infected U1 cells
# Assay type: cell-based, HIV-1; human cells
# Details: U1 cells, 4 days; read-out: IC50, IL-6 mediated HIV expression
Reported Endpoint: IC50

Task: Write down the reported IC50 of CCCCCCCCNCC(O)CCCCCCCCCn1c(=O)c2c(ncn2C)n(C)c1=O (stereo not shown) , test system: HIV-1 in U1 cells (IL-6 mediated expression).
Result: < 1000 nM
